# Read-out: ABC Transporter (ABCB1), ABCB1 (gene 5243)
# assay.explanation: LTEA_HepaRG_ABCB1: Life Technologies and Expression Analysis (LTEA) Assay for ABC Transporter (ABCB1) using HepaRG (AID 2283460)
# experimental.conditions: mRNA level, 48 h; actives raise or lower the signal
Active and inactive are the calls of the source. Rule for the calls: active = hit-call score of the fitted dose curve at least 0.9, where 1 is the maximum; inactive = score below 0.9.
Can you answer with just one of these options? active, inactive

## Input Per the assay record, what outcome was assigned to CC(C)(C)C(O)/C(=C\c1ccc(Cl)cc1Cl)n1cncn1 (stereo not drawn) ?
## Output active

## Input Per the assay record, what outcome was assigned to CCc1ccc(C(=O)NN(C(=O)c2cc(C)cc(C)c2)C(C)(C)C)cc1 ?
## Output active

## Input Per the assay record, what outcome was assigned to O=C(O)COc1ccc(Cl)cc1Cl ?
## Output inactive

## Input Per the assay record, what outcome was assigned to CNC(=O)Oc1cccc(N=CN(C)C)c1 ?
## Output inactive

## Input Per the assay record, what outcome was assigned to CNC(=O)CSP(=S)(OC)OC ?
## Output inactive

## Input Per the assay record, what outcome was assigned to O=[N+]([O-])c1c(Cl)c(Cl)c(Cl)c(Cl)c1Cl ?
## Output inactive

## Input Per the assay record, what outcome was assigned to CCCN(CCC)c1c([N+](=O)[O-])cc(C(F)(F)F)cc1[N+](=O)[O-] ?
## Output inactive

## Input Per the assay record, what outcome was assigned to CCOC1Oc2ccc(OS(C)(=O)=O)cc2C1(C)C (stereo not drawn) ?
## Output active

## Input Per the assay record, what outcome was assigned to C#CCN1C(=O)COc2cc(F)c(N3C(=O)C4=C(CCCC4)C3=O)cc21 ?
## Output active

## Input Per the assay record, what outcome was assigned to O=C1c2ccccc2C(=O)N1SC(Cl)(Cl)Cl ?
## Output inactive

## Input Per the assay record, what outcome was assigned to CCC(C)Nc1c([N+](=O)[O-])cc(C(C)(C)C)cc1[N+](=O)[O-] (stereo not drawn) ?
## Output active

## Input Per the assay record, what outcome was assigned to N#Cc1c(Cl)c(Cl)c(Cl)c(C#N)c1Cl ?
## Output inactive

## Input Per the assay record, what outcome was assigned to CC(C)OC(=O)Nc1cccc(Cl)c1 ?
## Output inactive

====

# assay.explanation: BSK_SAg_Proliferation: Cell Proliferation Assessment in the BioMAP Diversity Plus: SAg Assay (AID 2283095);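 note: relative cell number as total protein by SRB absorbance in sub-confluent culture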
# experimental.conditions: primary human HUVEC with PBMC
Calls of active or inactive are those of the source. How the source made its calls: active means hit-call score of the fitted dose curve at least 0.9, where 1 is the maximum; inactive means score below 0.9.
test.readout: AC50

## Input Supply measured AC50 of CNC(=O)Oc1cccc(N=CN(C)C)c1 in your reply.
## Output 17.9 µM (active)

## Input Supply measured AC50 of C[C@H]1[C@H](c2ccc(Cl)cc2)SC(=O)N1C(=O)NC1CCCCC1 in your reply.
## Output 18.1 µM (active)

## Input Supply measured AC50 of O=C(NC(=O)c1c(F)cccc1F)Nc1ccc(OC(F)(F)C(F)OC(F)(F)F)c(Cl)c1 (stereo unspecified) in your reply.
## Output 9.75 µM (active)

## Input Supply measured AC50 of N#Cc1c(Cl)c(Cl)c(Cl)c(C#N)c1Cl in your reply.
## Output 0.197 µM (active)

## Input Supply measured AC50 of CCC(C)(NC(=O)c1cc(Cl)c(C)c(Cl)c1)C(=O)CCl (stereo unspecified) in your reply.
## Output 1.92 µM (active)

====

# Read-out: Paternally Expressed 10 (PEG10), PEG10 (gene 23089)
# assay.explanation: LTEA_HepaRG_PEG10: Life Technologies and Expression Analysis (LTEA) Assay for Paternally Expressed 10 (PEG10) using HepaRG (AID 2283520)
# experimental.conditions: mRNA level, 48 h; actives raise or lower the signal
The source made the active and inactive calls. Rule for the calls: active = hit-call score of the fitted dose curve at least 0.9, where 1 is the maximum; inactive = score below 0.9.
Can you answer with just one of these options? label 1 for active, label 0 for inactive

## Input Per the assay record, what outcome was assigned to CNC(=O)Oc1ccccc1OC(C)C ?
## Output label 0

## Input Per the assay record, what outcome was assigned to O=C(O)C(F)(F)C(F)(F)C(F)(F)C(F)(F)C(F)(F)C(F)(F)C(F)(F)F ?
## Output label 0

## Input Per the assay record, what outcome was assigned to CCCN(CCC)c1c([N+](=O)[O-])cc(C(F)(F)F)cc1[N+](=O)[O-] ?
## Output label 0

## Input Per the assay record, what outcome was assigned to C[C@H]1[C@H](c2ccc(Cl)cc2)SC(=O)N1C(=O)NC1CCCCC1 ?
## Output label 1

## Input Per the assay record, what outcome was assigned to N#Cc1c(Cl)c(Cl)c(Cl)c(C#N)c1Cl ?
## Output label 0

## Input Per the assay record, what outcome was assigned to CC(C)OC(=O)Nc1cccc(Cl)c1 ?
## Output label 0

====

# Read-out: Monocyte Chemoattractant Protein-1 (MCP1), CCL2 (gene 6347)
# assay.explanation: BSK_LPS_MCP1: BioMAP Diversity Plus: LPS Assay for Monocyte Chemoattractant Protein-1 (MCP1) Biomarker Activity (AID 2283081)
# experimental.conditions: primary human HUVEC with PBMC; actives raise or lower the signal
Calls of active or inactive are those of the source. Rule for the calls: active = hit-call score of the fitted dose curve at least 0.9, where 1 is the maximum; inactive = score below 0.9.
Can you answer with just one of these options? TRUE for active, FALSE for inactive

## Input Per the assay record, what outcome was assigned to CCN(CC)C(=O)SCc1ccc(Cl)cc1 ?
## Output FALSE

## Input Per the assay record, what outcome was assigned to [2H]C1([2H])[n+]2ccccc2-c2cccc[n+]2C1([2H])[2H] ?
## Output FALSE

## Input Per the assay record, what outcome was assigned to COC(=O)c1ccccc1S(=O)(=O)NC(=O)N(C)c1nc(C)nc(OC)n1 ?
## Output FALSE

## Input Per the assay record, what outcome was assigned to CCC(C)(NC(=O)c1cc(Cl)c(C)c(Cl)c1)C(=O)CCl (configuration not stated) ?
## Output TRUE

## Input Per the assay record, what outcome was assigned to Oc1cc(Cl)ccc1Oc1ccc(Cl)cc1Cl ?
## Output TRUE

## Input Per the assay record, what outcome was assigned to O=C(O)CCCOc1ccc(Cl)cc1Cl ?
## Output FALSE

## Input Per the assay record, what outcome was assigned to CNC(=O)/C=C(\C)OP(=O)(OC)OC ?
## Output FALSE

## Input Per the assay record, what outcome was assigned to O=C1c2ccccc2C(=O)N1SC(Cl)(Cl)Cl ?
## Output FALSE

## Input Per the assay record, what outcome was assigned to CCOCN(C(=O)CCl)c1c(C)cccc1CC ?
## Output TRUE

## Input Per the assay record, what outcome was assigned to O=S(=O)(O)C(F)(F)C(F)(F)C(F)(F)C(F)(F)C(F)(F)C(F)(F)C(F)(F)C(F)(F)F ?
## Output FALSE

## Input Per the assay record, what outcome was assigned to N#CN ?
## Output FALSE

## Input Per the assay record, what outcome was assigned to CC1(C)C(C=C(Cl)Cl)C1C(=O)OC(C#N)c1ccc(F)c(Oc2ccccc2)c1 (configuration not stated) ?
## Output FALSE

## Input Per the assay record, what outcome was assigned to Clc1ccccc1-c1nnc(-c2ccccc2Cl)nn1 ?
## Output FALSE

## Input Per the assay record, what outcome was assigned to CC(C)OC(=O)Nc1cccc(Cl)c1 ?
## Output FALSE

## Input Per the assay record, what outcome was assigned to CCCN(CCOc1c(Cl)cc(Cl)cc1Cl)C(=O)n1ccnc1 ?
## Output FALSE

## Input Per the assay record, what outcome was assigned to CCC(C)Nc1c([N+](=O)[O-])cc(C(C)(C)C)cc1[N+](=O)[O-] (configuration not stated) ?
## Output FALSE

## Input Per the assay record, what outcome was assigned to CCS(=O)(=O)c1cccnc1S(=O)(=O)NC(=O)Nc1nc(OC)cc(OC)n1 ?
## Output FALSE

## Input Per the assay record, what outcome was assigned to O=C(O)COc1ccc(Cl)cc1Cl ?
## Output FALSE

## Input Per the assay record, what outcome was assigned to CCOC1Oc2ccc(OS(C)(=O)=O)cc2C1(C)C (configuration not stated) ?
## Output FALSE

## Input Per the assay record, what outcome was assigned to CN1CSC(=S)N(C)C1 ?
## Output TRUE

## Input Per the assay record, what outcome was assigned to O=C(Nc1ccccc1)Nc1cnns1 ?
## Output FALSE

## Input Per the assay record, what outcome was assigned to Cc1[nH]c(=O)n(C(C)(C)C)c(=O)c1Cl ?
## Output FALSE

## Input Per the assay record, what outcome was assigned to O=S1OCC2C(CO1)C1(Cl)C(Cl)=C(Cl)C2(Cl)C1(Cl)Cl (configuration not stated) ?
## Output TRUE

## Input Per the assay record, what outcome was assigned to C#CCN1C(=O)COc2cc(F)c(N3C(=O)C4=C(CCCC4)C3=O)cc21 ?
## Output FALSE

## Input Per the assay record, what outcome was assigned to COP(=S)(OC)Oc1ccc([N+](=O)[O-])cc1 ?
## Output FALSE

## Input Per the assay record, what outcome was assigned to COc1nn(CSP(=S)(OC)OC)c(=O)s1 ?
## Output FALSE

## Input Per the assay record, what outcome was assigned to CCC(C)(C)C(=O)OC1=C(c2ccc(Cl)cc2Cl)C(=O)OC12CCCCC2 ?
## Output TRUE
